Biological target: T1, EsCas13d, nuclease-dead (Eubacterium siraeum, UniProt B0MS50, R295A;H300A;R849A;H854A)
T1 sequence: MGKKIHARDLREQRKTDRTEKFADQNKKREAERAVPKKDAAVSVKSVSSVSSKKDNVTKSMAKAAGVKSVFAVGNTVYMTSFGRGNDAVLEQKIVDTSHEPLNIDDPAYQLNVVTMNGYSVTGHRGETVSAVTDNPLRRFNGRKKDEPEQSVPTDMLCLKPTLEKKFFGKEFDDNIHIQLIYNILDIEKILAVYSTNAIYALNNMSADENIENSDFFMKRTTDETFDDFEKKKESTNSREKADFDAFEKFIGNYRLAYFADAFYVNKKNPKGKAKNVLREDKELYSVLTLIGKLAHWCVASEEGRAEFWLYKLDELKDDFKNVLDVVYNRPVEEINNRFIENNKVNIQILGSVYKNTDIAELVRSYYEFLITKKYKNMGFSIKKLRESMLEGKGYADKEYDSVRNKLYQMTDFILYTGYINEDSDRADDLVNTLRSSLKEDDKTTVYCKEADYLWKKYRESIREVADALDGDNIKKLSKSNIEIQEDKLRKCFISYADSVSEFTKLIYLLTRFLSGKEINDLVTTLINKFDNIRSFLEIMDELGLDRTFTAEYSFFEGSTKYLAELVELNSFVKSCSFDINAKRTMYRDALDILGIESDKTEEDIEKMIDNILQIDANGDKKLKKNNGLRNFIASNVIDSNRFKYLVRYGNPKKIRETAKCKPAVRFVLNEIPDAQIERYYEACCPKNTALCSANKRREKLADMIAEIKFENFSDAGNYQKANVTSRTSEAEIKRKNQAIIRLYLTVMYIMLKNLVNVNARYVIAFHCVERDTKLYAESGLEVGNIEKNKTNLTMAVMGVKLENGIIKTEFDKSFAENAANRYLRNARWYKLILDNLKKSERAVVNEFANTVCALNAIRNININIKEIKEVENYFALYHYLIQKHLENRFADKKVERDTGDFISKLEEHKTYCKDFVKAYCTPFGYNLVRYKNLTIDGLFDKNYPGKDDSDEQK
Assay: crRNA (strand 1, pre-loaded); Mg2+; 40 mM Tris-HCl pH 7.5, 150 mM NaCl, 6 mM MgCl2, 1 mM DTT, 0.1% Tween-20, 0.2 mg/ml BSA; 25 C; 10 min per concentration, then washed
Settings: tags: His6-TwinStrep-SUMO cleaved; N-terminal SNAP kept (SNAP-Surface 488); label: 3' end held by stalled T7 RNA polymerase
endpoint label: Kd (nM)
Quick reminder: number only, in nM, skip the unit.

Problem: Identify measured Kd corresponding to target 2 MT 5'PFS AUU 3'PFS UAC (mixed) RNA 1: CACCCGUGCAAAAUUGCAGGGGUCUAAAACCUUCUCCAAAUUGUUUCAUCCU RNA 2: GGGAAUGGAUCCACAUCUACGAAUUCAUUAGGAUGAAACAAUUUGGAGAAGUACAGAUCGGAAGAGCACACGU
Solution: 11.9

Where do the numbers come from? From paper PMC10786891.
